tested on: S. aureus ATCC 25923; type: cell-based, Staphylococcus aureus; details: ATCC 25923, 24 h
Where a SMILES comes first, the peptide text is derived from it. [ ]: non-standard residue; d: D form. The star is where a group is joined. NMeF = CN[C@@H](Cc1ccccc1)C(=O)O; NMeK = CN[C@@H](CCCCN)C(=O)O; Decanoyl = CCCCCCCCCC(=O)*
Readings of MIC for the listed molecules
measureName: MIC (µM)

{"molecule": "CC(C)C[C@H](NC(=O)[C@H](CCCCN)NC(=O)[C@H](CCCCN)NC(=O)[C@H](Cc1ccccc1)N(C)C(=O)[C@H](CC(C)C)NC(=O)[C@H](CCCCN)NC(=O)[C@H](CCCCN)NC(=O)[C@H](Cc1ccccc1)N(C)C(=O)[C@H](CC(C)C)NC(=O)[C@@H](N)CCCCN)C(=O)N[C@@H](Cc1ccccc1)C(=O)N[C@@H](CCCCN)C(N)=O [TA4(3,7-NMePhe), KL(NMeF)KKL(NMeF)KKLFK-NH2] (H-KL[NMeF]KKL[NMeF]KKLFK-NH2; N-terminus assumed)", "measureName": "MIC", "unitTag": "µM", "number": 5.0}
{"molecule": "CCCCCCCCCC(=O)N[C@H](C(=O)N[C@@H](CCCCN)C(=O)N[C@@H](CCC(N)=O)C(=O)N[C@H](C(=O)N(C)[C@@H](CCCCN)C(=O)N[C@@H](CCCCN)C(=O)N[C@@H](CC(C)C)C(=O)N[C@@H](Cc1ccccc1)C(=O)N[C@@H](CCCCN)C(=O)N[C@@H](CCCCN)C(N)=O)C(C)C)[C@@H](C)CC [C10:0-A2(5-NMeLys), C10:0-IKQV(NMe-K)KLFKK-NH2] (Decanoyl-IKQV[NMeK]KLFKK-NH2)", "measureName": "MIC", "unitTag": "µM", "number": 2.8}
{"molecule": "CCCCCCCCCC(=O)N[C@H](C(=O)N[C@@H](CCCCN)C(=O)N[C@@H](CCC(N)=O)C(=O)N[C@H](C(=O)N[C@@H](CCCCN)C(=O)N[C@@H](CCCCN)C(=O)N[C@@H](CC(C)C)C(=O)N[C@@H](Cc1ccccc1)C(=O)N[C@@H](CCCCN)C(=O)N[C@@H](CCCCN)C(N)=O)C(C)C)[C@@H](C)CC [C10:0-A2, C10:0-IKQVKKLFKK-NH2] (Decanoyl-IKQVKKLFKK-NH2)", "measureName": "MIC", "unitTag": "µM", "number": 1.4}

====

test system: Gram (−) bacteria; settings: average over Gram (−) strains
Where a SMILES comes first, the peptide text is derived from it. [ ]: non-standard residue; d: D form. The star is where a group is joined. NMeF = CN[C@@H](Cc1ccccc1)C(=O)O; NMeK = CN[C@@H](CCCCN)C(=O)O; Decanoyl = CCCCCCCCCC(=O)*
Quick rule for you: MIC Average Bacteria Gram (−) under 2 µM gets Satisfied, anything else gets Not satisfied.

{"compound": "CC(C)C[C@H](NC(=O)[C@H](CCCCN)NC(=O)[C@H](CCCCN)NC(=O)[C@H](Cc1ccccc1)N(C)C(=O)[C@H](CC(C)C)NC(=O)[C@H](CCCCN)NC(=O)[C@H](CCCCN)NC(=O)[C@H](Cc1ccccc1)N(C)C(=O)[C@H](CC(C)C)NC(=O)[C@@H](N)CCCCN)C(=O)N[C@@H](Cc1ccccc1)C(=O)N[C@@H](CCCCN)C(N)=O [TA4(3,7-NMePhe), KL(NMeF)KKL(NMeF)KKLFK-NH2] (H-KL[NMeF]KKL[NMeF]KKLFK-NH2; N-terminus assumed)", "className": "Not satisfied"}
{"compound": "CCCCCCCCCC(=O)N[C@H](C(=O)N[C@@H](CCCCN)C(=O)N[C@@H](CCC(N)=O)C(=O)N[C@H](C(=O)N(C)[C@@H](CCCCN)C(=O)N[C@@H](CCCCN)C(=O)N[C@@H](CC(C)C)C(=O)N[C@@H](Cc1ccccc1)C(=O)N[C@@H](CCCCN)C(=O)N[C@@H](CCCCN)C(N)=O)C(C)C)[C@@H](C)CC [C10:0-A2(5-NMeLys), C10:0-IKQV(NMe-K)KLFKK-NH2] (Decanoyl-IKQV[NMeK]KLFKK-NH2)", "className": "Not satisfied"}
{"compound": "CCCCCCCCCC(=O)N[C@H](C(=O)N[C@@H](CCCCN)C(=O)N[C@@H](CCC(N)=O)C(=O)N[C@H](C(=O)N[C@@H](CCCCN)C(=O)N[C@@H](CCCCN)C(=O)N[C@@H](CC(C)C)C(=O)N[C@@H](Cc1ccccc1)C(=O)N(C)[C@@H](CCCCN)C(=O)N[C@@H](CCCCN)C(N)=O)C(C)C)[C@@H](C)CC [C10:0-A2(9-NMeLys), C10:0-IKQVKKLF(NMe-K)K-NH2] (Decanoyl-IKQVKKLF[NMeK]K-NH2)", "className": "Satisfied"}
{"compound": "CCCCCCCCCC(=O)N[C@H](C(=O)N[C@@H](CCCCN)C(=O)N[C@@H](CCC(N)=O)C(=O)N[C@H](C(=O)N[C@@H](CCCCN)C(=O)N(C)[C@@H](CCCCN)C(=O)N[C@@H](CC(C)C)C(=O)N[C@@H](Cc1ccccc1)C(=O)N[C@@H](CCCCN)C(=O)N[C@@H](CCCCN)C(N)=O)C(C)C)[C@@H](C)CC [C10:0-A2(6-NMeLys), C10:0-IKQVK(NMe-K)LFKK-NH2] (Decanoyl-IKQVK[NMeK]LFKK-NH2)", "className": "Satisfied"}
{"compound": "CCCCCCCCCC(=O)N[C@H](C(=O)N[C@@H](CCCCN)C(=O)N[C@@H](CCC(N)=O)C(=O)N[C@H](C(=O)N[C@@H](CCCCN)C(=O)N[C@@H](CCCCN)C(=O)N[C@@H](CC(C)C)C(=O)N(C)[C@@H](Cc1ccccc1)C(=O)N[C@@H](CCCCN)C(=O)N[C@@H](CCCCN)C(N)=O)C(C)C)[C@@H](C)CC [C10:0-A2(8-NMePhe), C10:0-IKQVKKL(NMe-F)KK-NH2] (Decanoyl-IKQVKKL[NMeF]KK-NH2)", "className": "Not satisfied"}
{"compound": "CCCCCCCCCC(=O)N[C@H](C(=O)N[C@@H](CCCCN)C(=O)N[C@@H](CCC(N)=O)C(=O)N[C@H](C(=O)N[C@@H](CCCCN)C(=O)N[C@@H](CCCCN)C(=O)N[C@@H](CC(C)C)C(=O)N[C@@H](Cc1ccccc1)C(=O)N[C@@H](CCCCN)C(=O)N[C@@H](CCCCN)C(N)=O)C(C)C)[C@@H](C)CC [C10:0-A2, C10:0-IKQVKKLFKK-NH2] (Decanoyl-IKQVKKLFKK-NH2)", "className": "Satisfied"}
{"compound": "CCCCCCCCCC(=O)N[C@H](C(=O)N[C@H](CCCCN)C(=O)N[C@@H](CCC(N)=O)C(=O)N[C@H](C(=O)N[C@H](CCCCN)C(=O)N[C@H](CCCCN)C(=O)N[C@@H](CC(C)C)C(=O)N[C@@H](Cc1ccccc1)C(=O)N[C@H](CCCCN)C(=O)N[C@H](CCCCN)C(N)=O)C(C)C)[C@@H](C)CC [C10:0-A2(dK), C10:0-IdKQVdKdKLFdKdK-NH2] (Decanoyl-I[dK]QV[dK][dK]LF[dK][dK]-NH2)", "className": "Not satisfied"}
